- System: Plasmodium berghei
- measurement.protocol: Screen against P. berghei liver stage (PbLuc), transformed with Luciferase, at 10uM
- Format: functional, HepG2
- test.context: tested at 10 uM
Out of some 69,000 compounds screened, about 8,600 (12%) showed an effect of 50% or more. For the sample, strong results were picked, then their nearest neighbours and some compounds at random.
Please respond with reported INHIBITION for every item in the list.
Lab book: enter the figure in %, no units written.

Query: INHIBITION; subject: CN(CC(=O)N1CCCN(Cc2cscn2)CC1)c1cnccn1
13.9

Request the reported INHIBITION associated with Cc1cccc(-c2noc(CN3CCc4c(ncn4C4CC4)C3)n2)c1
18.3

GET /values?readout=INHIBITION&item= O=C(Cn1cccn1)N1CCC(c2nnc(-c3ccsc3)o2)CC1
23.55

So what does the record say about INHIBITION for CN(Cc1ccccc1NCc1cccnc1)C(=O)c1cccs1 ?
49.3

Requested field: INHIBITION. Item: CCCc1csc(-c2ccc(S(C)(=O)=O)cc2)n1
-39.1

Item under review: CC(c1nc(C2CC2)no1)N1CCc2c(ncn2C2CC2)C1 (stereo not given) . Reported INHIBITION?
17

I am curious: what INHIBITION value has been reported for Cc1nc(C(=O)N2CCc3[nH]nc(Nc4ccccc4)c3C2)co1 ?
10.9875

Return reported INHIBITION; argument: CC(c1nc(-c2ccccc2)no1)N1CCc2c(ncn2C2CC2)C1 (stereo not given)
78.3

Query: INHIBITION; subject: CNc1ccnc(NCCC(=O)Nc2ccccc2C)n1
28.4

Which INHIBITION is listed for CCCS(=O)(=O)N1C[C@@H]2CN(Cc3ccco3)CCO[C@@H]2C1 ?
-32.6

Looking for the measured INHIBITION of Cc1nccn1CCCC(=O)N1CCCN(c2cccnn2)CC1 , can you help?
10

Given the entry COc1ccc(OC)c2c(C)cc(N(CCO)CCO)nc12 , report its measured INHIBITION.
1.79

What value of measured INHIBITION is listed for CC(=O)N1CCCN(C(C)c2ccc(Br)cc2)CC1 (stereo not given) ?
-19.2

// query INHIBITION value for entry COc1ccc(OC)c2c(C)cc(N(C)CCO)nc12
0.897

For the compound Cc1ccc(C(=O)N(C)Cc2cc(C)on2)cn1 , what INHIBITION is on record?
21.5

Which value of INHIBITION has been reported for Cn1nccc1CNC(=O)Cn1nc(C(F)(F)F)cc1C1CC1 in the records?
1.11

Please report the recorded INHIBITION for Cc1ccsc1-c1nccn1CCN1CCCOC1=O .
20.8

Can you look up the measured INHIBITION of Cc1ccccc1N1CCN(C(=O)CC(C)C)CC1 for me?
56.5

Form field: reported INHIBITION of CC(NC(=O)NCc1ccoc1)c1ccc2c(c1)CC(=O)N2 (stereo not given)
-55.4

Query: INHIBITION; subject: Cc1cnc(CNc2ccccc2CN(C)C(=O)c2cccs2)o1
55.6

Field request: INHIBITION | item: CSCC(=O)N1CCCN(c2ccncc2C)CC1
49.2

Suppose we examine the compound COc1ccc2c(c1)CCCN(C(=O)NCC1CCCO1)C2 (stereo not given) ; what INHIBITION value has been reported?
37.4

// query INHIBITION value for entry Cc1nnc([C@@]23CCO[C@@H]2CCN(Cc2nccs2)C3)o1
37.6

What value of INHIBITION has been reported for the following compound? CCOCCC(=O)N1CCCN(c2ccccc2C)CC1
15.2

Data request, read-out INHIBITION, for O=C(c1ncoc1C1CC1)N1CCCN(CCCc2ccccc2)CC1
83.9
